# target_entity: human JAK1 (a.a. 837-1142)
# experiment_description: In vitro JAK kinase assay (HTRF, phosphorylation of a biotinylated peptide), JAK1
# Assay type: biochemical
# condition_details: ratio of JAK2 IC50 to JAK1 IC50, measured at 1 mM ATP
# Procedure: Compounds herein were tested for inhibitory activity of JAK targets according to the following in vitro assay described in Park et al., Analytical Biochemistry 1999, 269, 94-104. […] The phosphorylated peptide was detected by homogenous time resolved fluorescence (HTRF). […] Binding to the Europium labeled antibody took place for 40 minutes and HTRF signal was measured on a Fusion plate reader (Perkin Elmer, Boston, Mass.).
recorded_metric: IC50 Ratio JAK2/JAK1
Form field (numeric): enter value without unit.

// known answers, use as guide
q: Which IC50 Ratio JAK2/JAK1 is listed for N#CCC1(n2cc(-c3ncnc4[nH]ccc34)cn2)CN(C2CCN(C(=O)c3ccc(-c4ccncc4)c(F)c3)CC2)C1 [Example 117] ?
a: 10.0

q: Which IC50 Ratio JAK2/JAK1 is listed for N#CCC1(n2cc(-c3ncnc4[nH]ccc34)cn2)CN(C2CCN(C(=O)Cc3c(Cl)cccc3Cl)CC2)C1 [Example 112] ?
a: 8.2

q: Which IC50 Ratio JAK2/JAK1 is listed for N#CCC1(n2cc(-c3ncnc4[nH]ccc34)cn2)CN(C2CCN(C(=O)c3cc(F)c(F)c(F)c3F)CC2)C1 [Example 54] ?
a: 9.1

q: Which IC50 Ratio JAK2/JAK1 is listed for Cc1ccccc1NC(=O)N1CCC(N2CC(CC#N)(n3cc(-c4ncnc5[nH]ccc45)cn3)C2)CC1 [Example 185] ?
a: 9.5

Please look at the following compound next.
q: Which IC50 Ratio JAK2/JAK1 is listed for N#CCC1(n2cc(-c3ncnc4[nH]ccc34)cn2)CN(C2C3COCC2CN(C(=O)c2ccnc(C(F)(F)F)c2F)C3)C1 (centres unmarked) [Example 365] ?
a: 15.5

----------
# target_entity: human JAK1 (a.a. 837-1142)
# experiment_description: In vitro JAK kinase assay (HTRF, phosphorylation of a biotinylated peptide), JAK1
# Format: biochemical
# condition_details: ratio of JAK2 IC50 to JAK1 IC50, measured at 1 mM ATP
recorded_metric: IC50 Ratio JAK2/JAK1
Form field (numeric): enter value without unit.

q: Which IC50 Ratio JAK2/JAK1 is listed for COc1cccc(C(=O)N2CCC(N3CC(CC#N)(n4cc(-c5ncnc6[nH]ccc56)cn4)C3)CC2)c1 ?
a: 1.9

q: Which IC50 Ratio JAK2/JAK1 is listed for N#CCC1(n2cc(-c3ncnc4[nH]ccc34)cn2)CN(C2CCN(C(=O)c3csc4ccccc34)CC2)C1 ?
a: 0.5

q: Which IC50 Ratio JAK2/JAK1 is listed for N#CCC1(n2ccc(-c3ncnc4[nH]ccc34)c2)CN(C2CCN(C(=O)c3ccc(F)c(F)c3)CC2)C1 ?
a: 9.8

q: Which IC50 Ratio JAK2/JAK1 is listed for COc1ccc(OC)c(NC(=O)N2CCC(N3CC(CC#N)(n4cc(-c5ncnc6[nH]ccc56)cn4)C3)CC2)c1 ?
a: 5.5

q: Which IC50 Ratio JAK2/JAK1 is listed for N#CCC1(n2cc(-c3c(C#N)cnc4[nH]ccc34)cn2)CN(C2CCN(C(=O)c3cc(C(F)(F)F)ncc3Cl)CC2)C1 ?
a: 3.2

q: Which IC50 Ratio JAK2/JAK1 is listed for N#CCC1(n2cc(-c3ncnc4[nH]ccc34)cn2)CN(C2CCN(C(=O)c3cnc4ccccc4c3)CC2)C1 ?
a: 0.9

q: Which IC50 Ratio JAK2/JAK1 is listed for Cc1ccsc1C(=O)N1CCC(N2CC(CC#N)(n3cc(-c4ncnc5[nH]ccc45)cn3)C2)CC1 ?
a: 5.4

q: Which IC50 Ratio JAK2/JAK1 is listed for N#CCC1(n2cc(-c3ncnc4[nH]ccc34)cn2)CN(C2CCN(C(=O)Nc3ccc(OC(F)(F)F)cc3)CC2)C1 ?
a: 3.7

q: Which IC50 Ratio JAK2/JAK1 is listed for COc1ccc(F)c(C(=O)N2CCC(N3CC(CC#N)(n4cc(-c5ncnc6[nH]ccc56)cn4)C3)CC2)c1 ?
a: 5.1

q: Which IC50 Ratio JAK2/JAK1 is listed for N#CCC1(n2cc(-c3ncnc4[nH]ccc34)cn2)CN(C2CCN(C(=O)c3cccc(F)c3)CC2)C1 ?
a: 5.8

---
q: Which IC50 Ratio JAK2/JAK1 is listed for N#CCC1(n2cc(-c3c(F)cnc4[nH]ccc34)cn2)CN(C2CCN(C(=O)c3cncc(C(F)(F)F)n3)CC2)C1 ?
a: 18.8

q: Which IC50 Ratio JAK2/JAK1 is listed for Cc1nc(NC(=O)N2CCC(N3CC(CC#N)(n4cc(-c5ncnc6[nH]ccc56)cn4)C3)CC2)sc1C ?
a: 3.0
